- assay_comment: Plasma pharmacokinetics after single oral dose in ORA-Plus or SyrSpend SF (Example 6), LC-MS/MS
- Format: in vivo, Sprague Dawley rats
- condition_details: female, Sprague-Dawley, rat, plasma, po, 24 mg/kg, G7: free base, 24 mg/kg single oral dose, SyrSpend, rat plasma
property_label: Tmax (h)
Please state the figure in h; there is no need to write the unit.

Requested read-out: Tmax. Entry: CC(C)(C)CNCCn1c(Sc2cc3c(cc2I)OCO3)nc2c(N)ncnc21
1

----------
- assay_comment: Plasma pharmacokinetics after single oral dose in ORA-Plus or SyrSpend SF (Example 6), LC-MS/MS
- Type: in vivo, Sprague Dawley rats
- condition_details: female, Sprague Dawley, rat, plasma, po, 60 mg/kg, G14: 2HCl, 60 mg/kg single oral dose, SyrSpend
property_label: AUC(0-t) (ng·h/mL)
Please state the figure in ng·h/mL; there is no need to write the unit.

Requested read-out: AUC(0-t). Entry: CC(C)NCCCn1c(Sc2cc3c(cc2I)OCO3)nc2c(N)ncnc21 [Compound 1 2HCl]
12600

----------
- assay_comment: Plasma pharmacokinetics after single oral dose in ORA-Plus or SyrSpend SF (Example 6), LC-MS/MS
- Assay type: in vivo, Sprague Dawley rats
- condition_details: female, Sprague Dawley, rat, plasma, po, 24 mg/kg, G1: free base, 24 mg/kg single oral dose, ORA-plus, rat plasma
property_label: Cmax (µg/mL)
Please state the figure in µg/mL; there is no need to write the unit.

Requested read-out: Cmax. Entry: CC(C)(C)CNCCn1c(Sc2cc3c(cc2I)OCO3)nc2c(N)ncnc21
0.579

----------
- assay_comment: Plasma pharmacokinetics after single oral dose in ORA-Plus or SyrSpend SF (Example 6), LC-MS/MS
- Type: in vivo, Sprague Dawley rats
- condition_details: female, Sprague Dawley, rat, plasma, po, 24 mg/kg, G12: 2HCl, 24 mg/kg single oral dose, SyrSpend, rat plasma
property_label: Cmax (ng/mL)
Please state the figure in ng/mL; there is no need to write the unit.

Requested read-out: Cmax. Entry: CC(C)NCCCn1c(Sc2cc3c(cc2I)OCO3)nc2c(N)ncnc21 [Compound 1 2HCl]
1030

----------
- assay_comment: Plasma pharmacokinetics after single oral dose in ORA-Plus or SyrSpend SF (Example 6), LC-MS/MS
- Type: in vivo, Sprague Dawley rats
- condition_details: female, Sprague Dawley, rat, plasma, po, 48 mg/kg, G10: 2HCl, 48 mg/kg single oral dose, SyrSpend, rat plasma
property_label: AUC(0-t)
Your answer should be a number followed by the unit of measure.

Requested read-out: AUC(0-t). Entry: CC(C)(C)CNCCn1c(Sc2cc3c(cc2I)OCO3)nc2c(N)ncnc21 [Compound 2 2HCl]
8580 ng·h/mL

----------
- assay_comment: Plasma pharmacokinetics after single PO or IV administration (Example 5), LC-MS/MS
- condition_details: female, Sprague-Dawley, rat, plasma, iv, 12 mg/kg, AUC0-last (hr*ng/mL) Mean ± StdDev, Group 18: 12 mg/kg IV, 0.9% Saline; dosed as 2HCl
property_label: AUC(0-t)
Your answer should be a number followed by the unit of measure.

Requested read-out: AUC(0-t). Entry: CC(C)NCCCn1c(Sc2cc3c(cc2I)OCO3)nc2c(N)ncnc21
2470 ng·h/mL

----------
- assay_comment: Plasma pharmacokinetics after single PO or IV administration (Example 5), LC-MS/MS
- condition_details: female, Sprague Dawley, rat, plasma, iv, 12 mg/kg, Tmax (hr) Mean ± StdDev, Group 9: 12 mg/kg IV, 5 mM Citric acid buffer + 15% Captisol; free base
property_label: Tmax (min)
Please state the figure in min; there is no need to write the unit.

Requested read-out: Tmax. Entry: CC(C)(C)CNCCn1c(Sc2cc3c(cc2I)OCO3)nc2c(N)ncnc21
15

----------
- assay_comment: Plasma pharmacokinetics after single oral dose in ORA-Plus or SyrSpend SF (Example 6), LC-MS/MS
- Assay type: in vivo, Sprague Dawley rats
- condition_details: female, Sprague Dawley, rat, plasma, po, 24 mg/kg, G12: 2HCl, 24 mg/kg single oral dose, SyrSpend, rat plasma
property_label: Tmax (h)
Please state the figure in h; there is no need to write the unit.

Requested read-out: Tmax. Entry: CC(C)NCCCn1c(Sc2cc3c(cc2I)OCO3)nc2c(N)ncnc21 [Compound 1 2HCl]
3.2

----------
- assay_comment: Plasma pharmacokinetics after single oral dose in ORA-Plus or SyrSpend SF (Example 6), LC-MS/MS
- Format: in vivo, Sprague Dawley rats
- condition_details: female, Sprague-Dawley, rat, plasma, po, 48 mg/kg, G8: free base, 48 mg/kg single oral dose, SyrSpend, rat plasma
property_label: Cmax
Your answer should be a number followed by the unit of measure.

Requested read-out: Cmax. Entry: CC(C)(C)CNCCn1c(Sc2cc3c(cc2I)OCO3)nc2c(N)ncnc21 [Compound 2]
1030 ng/mL

----------
- assay_comment: Plasma pharmacokinetics after single PO or IV administration (Example 5), LC-MS/MS
- condition_details: female, Sprague-Dawley, rat, plasma, iv, 24 mg/kg, Tmax (hr) Mean ± StdDev, Group 10: 24 mg/kg IV, 5 mM Citric acid buffer + 15% Captisol; free base
property_label: Tmax (min)
Please state the figure in min; there is no need to write the unit.

Requested read-out: Tmax. Entry: CC(C)(C)CNCCn1c(Sc2cc3c(cc2I)OCO3)nc2c(N)ncnc21 [Compound 2]
15

----------
- assay_comment: Plasma pharmacokinetics after single oral dose in ORA-Plus or SyrSpend SF (Example 6), LC-MS/MS
- Type: in vivo, Sprague Dawley rats
- condition_details: female, Sprague-Dawley, rat, plasma, po, 48 mg/kg, G8: free base, 48 mg/kg single oral dose, SyrSpend, rat plasma
property_label: AUC(0-t)

Requested read-out: AUC(0-t). Entry: CC(C)(C)CNCCn1c(Sc2cc3c(cc2I)OCO3)nc2c(N)ncnc21 [Compound 2]
8.14 µg·h/mL

----------
- assay_comment: Plasma pharmacokinetics after single oral dose in ORA-Plus or SyrSpend SF (Example 6), LC-MS/MS
- Assay type: in vivo, Sprague Dawley rats
- condition_details: female, Sprague-Dawley, rat, plasma, po, 24 mg/kg, G9: 2HCl, 24 mg/kg single oral dose, SyrSpend, rat plasma
property_label: Cmax

Requested read-out: Cmax. Entry: CC(C)(C)CNCCn1c(Sc2cc3c(cc2I)OCO3)nc2c(N)ncnc21 [Compound 2 2HCl]
0.27 µg/mL

----------
- assay_comment: Plasma pharmacokinetics after single oral dose in ORA-Plus or SyrSpend SF (Example 6), LC-MS/MS
- Type: in vivo, Sprague Dawley rats
- condition_details: female, Sprague-Dawley, rat, plasma, po, 48 mg/kg, G4: 2HCl, 48 mg/kg single oral dose, ORA-plus, rat plasma
property_label: Tmax (h)
Please state the figure in h; there is no need to write the unit.

Requested read-out: Tmax. Entry: CC(C)(C)CNCCn1c(Sc2cc3c(cc2I)OCO3)nc2c(N)ncnc21 [Compound 2 2HCl]
2.2

----------
- assay_comment: Plasma pharmacokinetics after single oral dose in ORA-Plus or SyrSpend SF (Example 6), LC-MS/MS
- Format: in vivo, Sprague Dawley rats
- condition_details: female, Sprague Dawley, rat, plasma, po, 24 mg/kg, G5: 2HCl, 24 mg/kg single oral dose, ORA-plus, rat plasma
property_label: Cmax (ng/mL)
Please state the figure in ng/mL; there is no need to write the unit.

Requested read-out: Cmax. Entry: CC(C)NCCCn1c(Sc2cc3c(cc2I)OCO3)nc2c(N)ncnc21 [Compound 1 2HCl]
1070

----------
- assay_comment: Solubility / compatibility testing in drinking solution vehicles and ingredients (Example 7)
- Type: physicochemical
- condition_details: Versa Free vehicle, aqueous with cosolvent or surfactant or cyclodextrin; API in Versa Free; read-out: Solubility testing result: Precipitate at
property_label: solubility

Requested read-out: solubility. Entry: CC(C)NCCCn1c(Sc2cc3c(cc2I)OCO3)nc2c(N)ncnc21 [Compound 1 2HCl]
< 5000 µg/mL

----------
- assay_comment: Plasma pharmacokinetics after single PO or IV administration (Example 5), LC-MS/MS
- condition_details: female, Sprague-Dawley, rat, plasma, po, 24 mg/kg, AUC0-last (hr*ng/mL) Mean ± StdDev, Group 11: 24 mg/kg PO, ORA-Plus; dosed as 2HCl, single dose
property_label: AUC(0-t) (ng·h/mL)
Please state the figure in ng·h/mL; there is no need to write the unit.

Requested read-out: AUC(0-t). Entry: CC(C)NCCCn1c(Sc2cc3c(cc2I)OCO3)nc2c(N)ncnc21 [Compound 1]
2700

----------
- assay_comment: Plasma pharmacokinetics after single PO or IV administration (Example 5), LC-MS/MS
- condition_details: female, Sprague-Dawley, rat, plasma, po, 60 mg/kg, AUC0-last (hr*ng/mL) Mean ± StdDev, Group 17: 60 mg/kg PO, 0.5% Methylcellulose in water; dosed as 2HCl
property_label: AUC(0-t)
Your answer should be a number followed by the unit of measure.

Requested read-out: AUC(0-t). Entry: CC(C)NCCCn1c(Sc2cc3c(cc2I)OCO3)nc2c(N)ncnc21
7320 ng·h/mL
